Data credit: ChEMBL document CHEMBL3862035

Test system: Mus musculus
assay procedure: Toxicity in Balb/c mouse at 2 mM, ip measured after 0 to 14 days
Format: organism-based
run parameters: in vivo, 2000 µM
value kind: Activity

>>> print(df.to_string())
                               given_smiles           tgt  reported_measurement
0             CC(=O)c1ccccc1NC(=O)c1ccccc1F  Mus musculus             Non-Toxic
1              CCCSCCNCCNC(=O)/C=C/c1ccccc1  Mus musculus             Non-Toxic
2         CC(=O)c1ccccc1NC(=O)/C=C\c1ccccc1  Mus musculus             Non-Toxic
3                  Nc1nc2nc[nH]c2c(=O)[nH]1  Mus musculus             Non-Toxic
4  O=C(NCCNCCSc1ccccc1)c1ccc([N+](=O)[O-])cc1  Mus musculus             Non-Toxic

Now let's try a different one.
-- ask Could you please provide reported Activity for Oc1ncnc2[nH]ncc12 ? Thanks!
-- reply Non-Toxic
